- EXPERIMENTAL_TARGET: Tyrosyl-tRNA synthetase, putative (Trypanosoma cruzi (strain CL Brener))
- EXPERIMENT_NOTES: Trypanosoma cruzi tyrosyl tRNA synthetase (TcYRS) _High Tyrosine SOP
- Assay type: functional
- Set-up: scale not given: in the data most compounds retested in dose-response had high values
- TEST_CONDITIONS: 30 µM

{"COMPOUND": "Cc1cccc(CN2CCN(Cc3ccccc3)CC(O)C2)n1 (stereo not drawn)", "Percent Effect, %": 8.99}
{"COMPOUND": "CCc1cnc(CN2CCC(N(C)Cc3noc(C4CC4)n3)C2)o1 (stereo not drawn)", "Percent Effect, %": 0.98}
{"COMPOUND": "CC(C)c1cc(NCC(C)N2CCCC2)n2nccc2n1 (stereo not drawn)", "Percent Effect, %": 12.2}
{"COMPOUND": "CCc1nc(C2CCCN2C(=O)c2nccnc2N)no1 (stereo not drawn)", "Percent Effect, %": -2.39}
{"COMPOUND": "CC(=O)N1CCC(c2cncc(Oc3ccccc3)n2)CC1", "Percent Effect, %": -1.06}
{"COMPOUND": "Cc1nn(C)c(C)c1NC(=O)CN1CCc2c(nc(C3CC3)n2C)C1", "Percent Effect, %": -0.529}
{"COMPOUND": "Cc1nc(C2CCCN2C(=O)c2cnns2)no1 (stereo not drawn)", "Percent Effect, %": 5.39}
{"COMPOUND": "Cc1ncsc1C(=O)NC1CCN(CCC(N)=O)CC1", "Percent Effect, %": 4.85}
{"COMPOUND": "CCc1nccn1C1CCCN(C(=O)Cc2n[nH]c3ccccc23)C1 (stereo not drawn)", "Percent Effect, %": 2.08}
{"COMPOUND": "c1ccc(Cc2noc(CNC3CCc4ncnn4C3)n2)cc1 (stereo not drawn)", "Percent Effect, %": 10.9}
{"COMPOUND": "Cc1nn(C)c(C)c1C1CCCN1Cc1cccc(C(=O)N(C)C)c1 (stereo not drawn)", "Percent Effect, %": 4.43}
{"COMPOUND": "CCOC(=O)[C@]12CCCN(Cc3nccs3)C[C@H]1CN(C(C)=O)C2", "Percent Effect, %": 0}
{"COMPOUND": "CC(=O)Nc1nc(C(=O)Nc2ccc(F)cc2)cs1", "Percent Effect, %": 7.62}
{"COMPOUND": "CCC(NC(N)=O)c1ccccc1OCC(=O)N1CCCC1 (stereo not drawn)", "Percent Effect, %": 5.26}
{"COMPOUND": "c1ncn(CC2CCCN2Cc2cn3ccsc3n2)n1 (stereo not drawn)", "Percent Effect, %": 2.39}
{"COMPOUND": "Cn1cc(C2COC3(CCN(C(=O)Cn4cccn4)CC3)C2)cn1 (stereo not drawn)", "Percent Effect, %": 4.32}
{"COMPOUND": "COc1cccc(COCC(=O)N2CCN(CC(C)(C)O)CC2)c1", "Percent Effect, %": 1.47}
{"COMPOUND": "COc1ccc(CNC(=O)NC2CCC(O)CC2)c(C(F)(F)F)c1 (stereo not drawn)", "Percent Effect, %": 3.16}
{"COMPOUND": "Cc1csc(N2CCN(CC(=O)Nc3c(C)n[nH]c3C)CC2C)n1 (stereo not drawn)", "Percent Effect, %": 3.96}
{"COMPOUND": "CCc1nc(C2CCCN2CCc2ccccn2)no1 (stereo not drawn)", "Percent Effect, %": 10.1}
{"COMPOUND": "Cc1nccnc1CN1CCC2(CCCN(C3CCOCC3)C2=O)C1 (stereo not drawn)", "Percent Effect, %": 5.21}
{"COMPOUND": "COCCN1CC[C@@H]2O[C@@H](COCC(=O)N3CCCC3)CC[C@@H]21", "Percent Effect, %": 7.29}
{"COMPOUND": "C[C@@H]1C(=O)NC[C@H]2CN(CCc3ccccc3)C[C@H]21", "Percent Effect, %": 11.6}
{"COMPOUND": "CCc1ncc2c(n1)CN(Cc1nc(-c3ccsc3)no1)CC2", "Percent Effect, %": 9.36}
{"COMPOUND": "Cc1ccccc1N1CCCN(C(=O)CCCS(N)(=O)=O)CC1", "Percent Effect, %": 3.23}
{"COMPOUND": "CCc1ccsc1C(=O)N1CCN(CC(O)CC)CC1 (stereo not drawn)", "Percent Effect, %": 2.94}
{"COMPOUND": "CCOc1ccnc(N2CCN(C(=O)C(C)(C)C#N)CC2)n1", "Percent Effect, %": 1.48}
{"COMPOUND": "Cc1cnn(CC2CCCCN2C(=O)c2cc(C(N)=O)cs2)c1 (stereo not drawn)", "Percent Effect, %": -1.04}
{"COMPOUND": "Cc1ccc(N2CCC3(CCCN(C(=O)c4cccnc4)C3)C2)nn1 (stereo not drawn)", "Percent Effect, %": 0.526}
{"COMPOUND": "Cc1ccc([C@@H]2CN(C(=O)c3ccc[nH]3)C[C@H]2NC(=O)C2CC2)cc1", "Percent Effect, %": 2.66}
{"COMPOUND": "COc1ncccc1C(=O)N1CCC(CNC(C)=O)CC1", "Percent Effect, %": 4.92}
{"COMPOUND": "O=C(c1ccc2c(c1)OCO2)N1CCCSCC1CN1CCCC1 (stereo not drawn)", "Percent Effect, %": 8.47}
{"COMPOUND": "COc1ccc(C(=O)N2CC[C@H](CO)[C@H](O)C2)c(C)c1", "Percent Effect, %": 7.98}
{"COMPOUND": "CC(C)c1cc(C(=O)N(C)Cc2cccc3ncccc23)n(C)n1", "Percent Effect, %": 3.17}
{"COMPOUND": "CC(=O)N1CCCC1c1ccc(C(=O)N2CCOCC2)s1 (stereo not drawn)", "Percent Effect, %": -2.15}
{"COMPOUND": "Cc1ccccc1N1CC2(CCN(S(=O)(=O)C3CC3)C2)CC1=O (stereo not drawn)", "Percent Effect, %": 3.87}
{"COMPOUND": "CN(Cc1nnc(-c2ccco2)o1)C1CCCN(c2cccnn2)C1 (stereo not drawn)", "Percent Effect, %": 3.35}
{"COMPOUND": "COC(=O)CN1CC(c2nc(Cc3ccccc3)no2)C1", "Percent Effect, %": 8.6}
{"COMPOUND": "Cc1ccc(-c2nc(CN3CCc4nn(C)c(=O)cc4C3)co2)cc1", "Percent Effect, %": 3.45}
{"COMPOUND": "CC(=O)N1CCCN(C(=O)c2oc(Br)cc2C)CC1", "Percent Effect, %": 2.65}
{"COMPOUND": "c1cnn(CC2CCCCN2Cc2cn3ccsc3n2)c1 (stereo not drawn)", "Percent Effect, %": 10.1}
{"COMPOUND": "Cn1ccnc1CN1CCC2(CC1)CC(NC(=O)c1ccccn1)CO2 (stereo not drawn)", "Percent Effect, %": -20.1}
{"COMPOUND": "CCOc1nnc(CN(C)CC2CCCN2c2cccnn2)s1 (stereo not drawn)", "Percent Effect, %": 3.19}
{"COMPOUND": "O=C(CCc1cccnc1)N1CCCC(n2cncn2)C1 (stereo not drawn)", "Percent Effect, %": 2.46}
{"COMPOUND": "COCCOc1ncccc1CNCc1c(C)nn(C)c1N(C)C", "Percent Effect, %": 2.46}
{"COMPOUND": "COc1ccc(C2=CCN(C(=O)C3CCCN(C(N)=O)C3)CC2)cc1 (stereo not drawn)", "Percent Effect, %": 6.4}
{"COMPOUND": "CCN(Cc1ccccc1)C(=O)CN1CCCC(Cn2cncn2)C1 (stereo not drawn)", "Percent Effect, %": -4.43}
{"COMPOUND": "COCc1nc(C(=O)NS(=O)(=O)c2cc(F)ccc2F)cs1", "Percent Effect, %": -0.478}

====

Below, each of the molecules is paired with its reported Percent Effect value.
- EXPERIMENTAL_TARGET: Tyrosyl-tRNA synthetase, putative (Trypanosoma cruzi (strain CL Brener))
- EXPERIMENT_NOTES: Trypanosoma cruzi tyrosyl tRNA synthetase (TcYRS) _High Tyrosine SOP
- Format: functional
- Parameters: scale not given: in the data most compounds retested in dose-response had high values
- TEST_CONDITIONS: 30 µM

{"MOLECULE": "COc1ncccc1C(=O)N1CCn2c(COCC3CC3)cnc2C1C (stereo unspecified)", "Percent Effect (%)": 4.74}
{"MOLECULE": "O=C(c1ccc(F)cc1F)N1C[C@@H](O)[C@H](N2CCOCC2)C1", "Percent Effect (%)": 1.06}
{"MOLECULE": "Cc1nsc(N2CCCN(c3nc(C4CC4)ns3)CC2)n1", "Percent Effect (%)": 1.07}
{"MOLECULE": "CN(C)C(=O)N[C@@H]1CN(Cc2ccc3c(c2)OCO3)[C@@H]2CCCO[C@@H]21", "Percent Effect (%)": 7.29}
{"MOLECULE": "Cn1cccc1C(CNC(=O)c1ccc(F)cc1F)N1CCCCCC1 (stereo unspecified)", "Percent Effect (%)": 8.47}
{"MOLECULE": "CN(C)CC1CN(Cc2csc(C3CCCC3)n2)CCO1 (stereo unspecified)", "Percent Effect (%)": 8.37}
